Origin of measurements: ChEMBL document CHEMBL4616711

- TEST_SYSTEM: Multifunctional protein CAD (Homo sapiens)
- Sequence (P27708 whole entry): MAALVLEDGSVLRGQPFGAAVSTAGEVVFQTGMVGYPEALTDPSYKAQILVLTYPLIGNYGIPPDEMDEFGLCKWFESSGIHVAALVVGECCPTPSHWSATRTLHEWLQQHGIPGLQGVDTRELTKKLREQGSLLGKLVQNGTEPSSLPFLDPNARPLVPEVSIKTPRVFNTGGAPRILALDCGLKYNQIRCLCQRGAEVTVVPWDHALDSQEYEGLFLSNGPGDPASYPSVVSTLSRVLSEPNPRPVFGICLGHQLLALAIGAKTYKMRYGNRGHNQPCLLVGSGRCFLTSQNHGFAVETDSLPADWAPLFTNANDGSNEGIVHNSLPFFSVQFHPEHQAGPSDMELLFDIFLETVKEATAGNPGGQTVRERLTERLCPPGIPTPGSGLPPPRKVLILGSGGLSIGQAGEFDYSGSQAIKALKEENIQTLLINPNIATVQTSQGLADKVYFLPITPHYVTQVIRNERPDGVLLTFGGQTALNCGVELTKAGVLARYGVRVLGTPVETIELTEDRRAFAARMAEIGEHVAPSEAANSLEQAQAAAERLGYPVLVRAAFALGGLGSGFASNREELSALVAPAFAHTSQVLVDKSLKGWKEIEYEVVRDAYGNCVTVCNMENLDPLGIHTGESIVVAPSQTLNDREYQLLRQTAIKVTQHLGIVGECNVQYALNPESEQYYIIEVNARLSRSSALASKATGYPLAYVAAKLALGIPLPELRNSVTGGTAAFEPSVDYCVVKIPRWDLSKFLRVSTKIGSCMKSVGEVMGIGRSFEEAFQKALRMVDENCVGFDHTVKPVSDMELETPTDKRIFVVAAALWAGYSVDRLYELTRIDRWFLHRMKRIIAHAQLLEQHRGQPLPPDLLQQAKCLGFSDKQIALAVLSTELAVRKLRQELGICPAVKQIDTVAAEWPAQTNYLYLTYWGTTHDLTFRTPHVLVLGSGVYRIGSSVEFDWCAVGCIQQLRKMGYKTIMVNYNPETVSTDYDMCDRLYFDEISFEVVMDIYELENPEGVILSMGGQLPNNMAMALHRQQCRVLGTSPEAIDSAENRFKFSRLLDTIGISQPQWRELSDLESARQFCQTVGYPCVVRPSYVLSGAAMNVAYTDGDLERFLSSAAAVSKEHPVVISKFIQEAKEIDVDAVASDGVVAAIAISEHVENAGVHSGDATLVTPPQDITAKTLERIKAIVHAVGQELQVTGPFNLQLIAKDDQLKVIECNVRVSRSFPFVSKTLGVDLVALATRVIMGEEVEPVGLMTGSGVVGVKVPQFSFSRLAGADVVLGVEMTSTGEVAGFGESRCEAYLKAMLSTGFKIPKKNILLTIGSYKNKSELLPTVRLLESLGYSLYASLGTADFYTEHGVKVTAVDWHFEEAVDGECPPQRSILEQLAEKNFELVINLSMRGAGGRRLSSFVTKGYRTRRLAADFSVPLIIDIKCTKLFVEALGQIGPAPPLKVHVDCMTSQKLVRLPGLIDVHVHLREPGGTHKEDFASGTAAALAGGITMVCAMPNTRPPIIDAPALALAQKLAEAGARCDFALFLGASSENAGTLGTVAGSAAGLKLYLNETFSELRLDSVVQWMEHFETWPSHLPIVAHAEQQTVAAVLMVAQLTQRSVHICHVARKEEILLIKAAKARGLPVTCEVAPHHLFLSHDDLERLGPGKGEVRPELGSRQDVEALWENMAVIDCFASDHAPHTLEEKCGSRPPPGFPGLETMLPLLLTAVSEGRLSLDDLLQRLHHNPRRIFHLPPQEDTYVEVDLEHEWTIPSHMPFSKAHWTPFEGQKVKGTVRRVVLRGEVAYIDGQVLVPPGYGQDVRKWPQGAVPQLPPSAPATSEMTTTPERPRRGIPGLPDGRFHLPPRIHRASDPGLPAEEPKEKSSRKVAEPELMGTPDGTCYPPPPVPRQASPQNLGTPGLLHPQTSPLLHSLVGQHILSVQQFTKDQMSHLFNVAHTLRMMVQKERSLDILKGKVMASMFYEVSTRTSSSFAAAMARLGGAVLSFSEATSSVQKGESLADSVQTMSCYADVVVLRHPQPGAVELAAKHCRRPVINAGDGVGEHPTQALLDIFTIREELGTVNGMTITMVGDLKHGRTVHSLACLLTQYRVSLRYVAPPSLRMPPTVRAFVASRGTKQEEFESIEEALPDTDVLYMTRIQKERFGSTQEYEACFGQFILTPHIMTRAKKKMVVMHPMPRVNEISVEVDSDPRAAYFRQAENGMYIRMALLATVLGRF
- METHOD: Inhibition of CAD (unknown origin) CSP2 activity expressed in Escherichia coli BL21 (DE3) preincubated for 20 mins followed by ATP addition measured after 60 mins by ADP-Glo assay
pIC50: −log10 of the molar value.
MEASUREMENT_NAME: pIC50

// query So what does the record say about pIC50 for COc1ccc(C(=O)N2[C@H](C)CN(C(=O)c3ccc4cc[nH]c4c3)C[C@H]2C)c(F)c1 ?
// result ≤ 4.00

* * *

pIC50 overview
- TEST_SYSTEM: Carbamoyl-phosphate synthase [ammonia], mitochondrial (Homo sapiens)
- METHOD: Inhibition of CPS1 in human pooled hepatocytes assessed as reduction in urea production measured after 16 hrs in presence of NH4Cl by tecan-plate reader analysis
- Format: cell-based
- CONDITION_DESCRIPTION: read-out: IC50
Value format note: pIC50 is -log10 of concentration (mol/L); just state the number.

| MOLECULE_SMILES | MEASUREMENT_NAME | NUMERIC_VALUE |
| --- | --- | --- |
| COc1ccc(C(=O)N2[C@H](C)CN(C(=O)c3ccc4cc(C)[nH]c4c3)C[C@H]2C)c(F)c1 | pIC50 | 6.00 |

Here's the next entry for you.
// query Any idea what pIC50 was measured for COc1ccc(C(=O)N2[C@H](C)CN(C(=O)c3ccc4cc[nH]c4c3)C[C@H]2C)c(F)c1 ?
// result 6.62

* * *

// reported pIC50 for each item listed
- TEST_SYSTEM: Carbamoyl-phosphate synthase [ammonia], mitochondrial (Homo sapiens, UniProt P31327)
- Sequence (P31327 whole entry): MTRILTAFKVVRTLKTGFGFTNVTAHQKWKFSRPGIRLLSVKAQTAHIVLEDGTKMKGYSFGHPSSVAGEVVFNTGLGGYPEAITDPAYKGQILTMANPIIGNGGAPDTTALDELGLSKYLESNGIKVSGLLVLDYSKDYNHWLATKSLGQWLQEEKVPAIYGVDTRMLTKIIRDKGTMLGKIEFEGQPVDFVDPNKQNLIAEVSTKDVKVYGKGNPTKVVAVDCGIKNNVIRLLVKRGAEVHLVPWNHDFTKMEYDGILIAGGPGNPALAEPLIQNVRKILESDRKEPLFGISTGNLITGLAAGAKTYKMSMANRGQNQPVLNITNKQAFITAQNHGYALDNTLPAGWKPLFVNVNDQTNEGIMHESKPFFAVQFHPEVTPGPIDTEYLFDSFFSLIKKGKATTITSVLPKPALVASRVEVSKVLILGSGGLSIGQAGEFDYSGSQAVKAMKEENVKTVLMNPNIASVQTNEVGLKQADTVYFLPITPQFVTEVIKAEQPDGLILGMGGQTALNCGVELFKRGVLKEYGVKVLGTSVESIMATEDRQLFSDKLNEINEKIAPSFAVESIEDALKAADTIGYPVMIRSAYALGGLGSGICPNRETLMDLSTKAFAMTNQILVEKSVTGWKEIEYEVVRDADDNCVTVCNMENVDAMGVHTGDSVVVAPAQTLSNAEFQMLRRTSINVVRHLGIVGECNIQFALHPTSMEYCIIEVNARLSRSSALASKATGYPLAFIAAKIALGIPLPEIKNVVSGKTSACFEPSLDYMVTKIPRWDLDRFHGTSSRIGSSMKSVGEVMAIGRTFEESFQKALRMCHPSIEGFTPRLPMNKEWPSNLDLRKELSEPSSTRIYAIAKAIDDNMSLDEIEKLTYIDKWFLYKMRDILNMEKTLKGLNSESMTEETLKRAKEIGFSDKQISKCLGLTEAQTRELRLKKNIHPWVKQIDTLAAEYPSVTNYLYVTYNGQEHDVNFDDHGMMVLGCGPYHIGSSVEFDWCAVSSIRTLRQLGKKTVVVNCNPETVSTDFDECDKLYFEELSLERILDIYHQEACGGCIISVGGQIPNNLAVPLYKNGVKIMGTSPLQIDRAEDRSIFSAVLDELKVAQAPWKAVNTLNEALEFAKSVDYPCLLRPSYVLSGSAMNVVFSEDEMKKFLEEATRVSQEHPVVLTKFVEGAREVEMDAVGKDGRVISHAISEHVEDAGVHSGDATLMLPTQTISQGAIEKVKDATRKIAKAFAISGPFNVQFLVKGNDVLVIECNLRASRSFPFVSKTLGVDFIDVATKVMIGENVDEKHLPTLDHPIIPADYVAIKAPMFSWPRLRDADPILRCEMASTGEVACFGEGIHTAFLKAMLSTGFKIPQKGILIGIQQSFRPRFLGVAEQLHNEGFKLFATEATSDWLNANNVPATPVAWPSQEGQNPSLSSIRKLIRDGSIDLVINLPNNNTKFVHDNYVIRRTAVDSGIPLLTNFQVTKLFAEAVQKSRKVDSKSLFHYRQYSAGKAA
- METHOD: Allosteric inhibition of His-tagged CPS1 (unknown origin) expressed in baculovirus infected Sf21 insect cells assessed as reduction in ADP level preincubated for 20 mins followed by ATP addition measured after 60 mins by ADP-Glo assay
A value of pIC50 is the negative decimal logarithm of a concentration given in moles per litre.

| COMPOUND | NUMERIC_VALUE |
| --- | --- |
| CCOc1ccc(C(=O)N2[C@H](C)CN(C(=O)c3ccc(OC)cc3F)C[C@H]2C)c(F)c1 | 6.42 |
| COc1ccc(C(=O)N2C[C@@H](C)N(C(=O)c3ccc(OC(C)C)cc3F)[C@H](C)C2)c(F)c1 | 5.85 |
| COc1ccc(C(=O)N2C[C@@H](C)N(C(=O)c3ccc(F)cc3F)[C@H](C)C2)c(F)c1 | 5.89 |
| COc1ccc(C(=O)C2CCN(C(=O)c3ccc(OC)cc3F)CC2)c(F)c1 | 4.67 |
| Cc1csc(NC(=O)C2CCN(C(=O)N(C)Cc3ccccc3)CC2)n1 | 5.82 |
| CCOc1ccc(C(=O)N2C[C@@H](C)N(C(=O)c3ccc(OC)cc3F)[C@H](C)C2)c(F)c1 | 6.89 |

// query # input compound: COc1ccc(C(=O)N2[C@H](C)CN(C(=O)c3ccc4cc[nH]c4c3)C[C@H]2C)c(F)c1 ; wanted: its pIC50
// result 7.18

// query Can you share its pIC50? I mean this compound: COc1ccc(C(=O)N2CC(C)N(C(=O)c3ccc(OC)cc3F)CC2C)c(F)c1 (centres undefined)
// result 4.94

// query Name the reported pIC50 value associated with the compound COc1ccc(C(=O)N2CCCN(C(=O)c3ccc(OC)cc3F)CC2)c(F)c1
// result 4.72
